Target: Toll-like receptor 4 (Homo sapiens)
Assay: Inhibition of LPS-induced TLR4 activation (unknown origin) expressed in HEK293 Blue cells compound treated for 30 mins prior LPS treatment measured after 2 to 4 hrs by spectrophotometry
Format: cell-based
Activity calls are given as the source filed them. No cut-off for these calls is given here.
QUANTITY_KIND: inhibition

Example entries begin here.
CHEMICAL_SMILES: CCCCCCO[C@H]1[C@@H](OC)O[C@H](CSCCN)[C@@H](O)[C@@H]1OCCCCCC
MEASURED: inactive
--
CHEMICAL_SMILES: CCCCCCO[C@@H]1[C@H](OCCCCCC)[C@@H](O[C@H]2O[C@H](CSCCN)[C@@H](OCCCCCC)[C@H](OCCCCCC)[C@H]2OCCCCCC)O[C@H](CSCCN)[C@H]1OCCCCCC
MEASURED: inactive
--
CHEMICAL_SMILES: CCCCCC(=O)O[C@@H]1[C@@H](OC(=O)CCCCC)[C@@H](OC)O[C@H](CSCCNC(=S)NCCN(CCN)CCN)[C@H]1OC(=O)CCCCC.Cl
MEASURED: Dose-dependent effect
--
CHEMICAL_SMILES: CCCCCCCCCCCCCCO[C@@H]1[C@H](OCCCCCCCCCCCCCC)[C@@H](O[C@H]2O[C@H](CSCCN)[C@@H](OCCCCCCCCCCCCCC)[C@H](OCCCCCCCCCCCCCC)[C@H]2OCCCCCCCCCCCCCC)O[C@H](CSCCN)[C@H]1OCCCCCCCCCCCCCC
MEASURED: inactive
--
CHEMICAL_SMILES: CCCCCC(=O)O[C@@H]1[C@H](OC(=O)CCCCC)[C@@H](O[C@H]2O[C@H](Cn3cc(CNC(=S)NCCN)nn3)[C@@H](OC(=O)CCCCC)[C@H](OC(=O)CCCCC)[C@H]2OC(=O)CCCCC)O[C@H](Cn2cc(CNC(=S)NCCN)nn2)[C@H]1OC(=O)CCCCC
MEASURED: Dose-dependent effect

// recorded inhibition for CCCCCCO[C@@H]1[C@@H](OCCCCCC)[C@@H](OC)O[C@H](CN)[C@H]1OCCCCCC : inactive

// recorded inhibition for CCCCCC(=O)O[C@@H]1[C@H](OC(=O)CCCCC)[C@@H](O[C@H]2O[C@H](Cn3cc(CN(CCN)CCN)nn3)[C@@H](OC(=O)CCCCC)[C@H](OC(=O)CCCCC)[C@H]2OC(=O)CCCCC)O[C@H](Cn2cc(CN(CCN)CCN)nn2)[C@H]1OC(=O)CCCCC : Dose-dependent effect

// recorded inhibition for CCCCCC(=O)O[C@@H]1[C@@H](OC(=O)CCCCC)[C@@H](OC)O[C@H](Cn2cc(CN(CCNC(=S)NCCN)CCNC(=S)NCCN)nn2)[C@H]1OC(=O)CCCCC : inactive

// recorded inhibition for CCCCCC(=O)O[C@@H]1[C@H](OC(=O)CCCCC)[C@@H](O[C@H]2O[C@H](CSCCN)[C@@H](OC(=O)CCCCC)[C@H](OC(=O)CCCCC)[C@H]2OC(=O)CCCCC)O[C@H](CSCCN)[C@H]1OC(=O)CCCCC : Dose-dependent effect

// recorded inhibition for CCCCCCCCCCCCCCO[C@H]1[C@@H](OC)O[C@H](CSCCN)[C@@H](O)[C@@H]1OCCCCCCCCCCCCCC : inactive

---

Target: Toll-like receptor 4 (Homo sapiens, UniProt O00206)
Sequence (O00206 whole entry): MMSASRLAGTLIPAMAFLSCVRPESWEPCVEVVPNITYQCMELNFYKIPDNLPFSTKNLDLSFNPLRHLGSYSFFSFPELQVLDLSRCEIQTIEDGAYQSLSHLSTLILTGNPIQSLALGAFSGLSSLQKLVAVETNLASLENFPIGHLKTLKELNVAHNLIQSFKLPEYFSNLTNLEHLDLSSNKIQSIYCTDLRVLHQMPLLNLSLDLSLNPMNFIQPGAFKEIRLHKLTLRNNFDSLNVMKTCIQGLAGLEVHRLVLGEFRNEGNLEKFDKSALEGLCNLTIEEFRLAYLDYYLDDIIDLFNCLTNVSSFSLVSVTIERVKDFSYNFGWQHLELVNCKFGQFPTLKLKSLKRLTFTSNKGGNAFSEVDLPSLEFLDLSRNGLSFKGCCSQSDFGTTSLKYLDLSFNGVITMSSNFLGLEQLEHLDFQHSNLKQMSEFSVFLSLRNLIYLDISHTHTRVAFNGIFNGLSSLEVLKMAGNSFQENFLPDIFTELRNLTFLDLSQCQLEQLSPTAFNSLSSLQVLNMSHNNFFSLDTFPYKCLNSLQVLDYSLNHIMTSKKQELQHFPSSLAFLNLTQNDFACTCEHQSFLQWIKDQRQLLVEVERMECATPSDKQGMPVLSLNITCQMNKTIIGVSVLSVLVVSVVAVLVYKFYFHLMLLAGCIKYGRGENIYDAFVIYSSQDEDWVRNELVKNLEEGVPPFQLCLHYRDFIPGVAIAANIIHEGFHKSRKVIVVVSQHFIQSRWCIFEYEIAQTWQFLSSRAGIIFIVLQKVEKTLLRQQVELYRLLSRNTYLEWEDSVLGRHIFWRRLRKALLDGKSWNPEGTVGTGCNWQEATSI
Assay: Agonist activity at human TLR4 expressed in HEK293 cells co-transfected with human MD-2/CD14 assessed as receptor signal after 2 to 4 hrs by dual luciferase reporter gene assay
Assay type: cell-based
Activity calls are given as the source filed them. The calls are words filed in the database; no cut-off is given here.

CHEMICAL_SMILES: CCCCCCO[C@@H]1[C@H](OCCCCCC)[C@@H](O[C@H]2O[C@H](CSCCN)[C@@H](OCCCCCC)[C@H](OCCCCCC)[C@H]2OCCCCCC)O[C@H](CSCCN)[C@H]1OCCCCCC
Activity: inactive
//
CHEMICAL_SMILES: CCCCCC(=O)O[C@@H]1[C@@H](OC(=O)CCCCC)[C@@H](OC)O[C@H](CSCCNC(=S)NCCN(CCN)CCN)[C@H]1OC(=O)CCCCC.Cl
Activity: inactive
//
CHEMICAL_SMILES: CCCCCCO[C@H]1[C@@H](OC)O[C@H](CSCCN)[C@@H](O)[C@@H]1OCCCCCC
Activity: inactive

---

Experiment: Amphiphilicity of the compound assessed as critical micelle concentration by spectrofluorophotometry
Format: physicochemical
QUANTITY_KIND: CMC (µM)
Record the value in µM, omitting the unit from your answer.

Example entries begin here.
CHEMICAL_SMILES: CCCCCC(=O)O[C@@H]1[C@@H](OC(=O)CCCCC)[C@@H](OC)O[C@H](CSCCNC(=S)NCCN(CCN)CCN)[C@H]1OC(=O)CCCCC.Cl
CMC [µM]: 59.7
//
CHEMICAL_SMILES: CCCCCC(=O)O[C@@H]1[C@H](OC(=O)CCCCC)[C@@H](O[C@H]2O[C@H](CSCCN)[C@@H](OC(=O)CCCCC)[C@H](OC(=O)CCCCC)[C@H]2OC(=O)CCCCC)O[C@H](CSCCN)[C@H]1OC(=O)CCCCC
CMC [µM]: 97.7

// recorded CMC for CCCCCC(=O)O[C@@H]1[C@H](OC(=O)CCCCC)[C@@H](O[C@H]2O[C@H](Cn3cc(CNC(=S)NCCN)nn3)[C@@H](OC(=O)CCCCC)[C@H](OC(=O)CCCCC)[C@H]2OC(=O)CCCCC)O[C@H](Cn2cc(CNC(=S)NCCN)nn2)[C@H]1OC(=O)CCCCC : 10.9

// recorded CMC for CCCCCC(=O)O[C@@H]1[C@H](OC(=O)CCCCC)[C@@H](O[C@H]2O[C@H](Cn3cc(CN(CCN)CCN)nn3)[C@@H](OC(=O)CCCCC)[C@H](OC(=O)CCCCC)[C@H]2OC(=O)CCCCC)O[C@H](Cn2cc(CN(CCN)CCN)nn2)[C@H]1OC(=O)CCCCC : 350

---

Target: Toll-like receptor 4 (Homo sapiens, UniProt O00206)
Assay: Inhibition of LPS-induced TLR4 activation (unknown origin) expressed in HEK293 Blue cells compound treated for 30 mins prior LPS treatment measured after 2 to 4 hrs by spectrophotometry
Format: cell-based
QUANTITY_KIND: IC50 (µM)
Record the value in µM, omitting the unit from your answer.

Example entries begin here.
CHEMICAL_SMILES: CCCCCC(=O)O[C@@H]1[C@H](OC(=O)CCCCC)[C@@H](O[C@H]2O[C@H](CSCCN)[C@@H](OC(=O)CCCCC)[C@H](OC(=O)CCCCC)[C@H]2OC(=O)CCCCC)O[C@H](CSCCN)[C@H]1OC(=O)CCCCC
IC50 [µM]: 1.3

CHEMICAL_SMILES: CCCCCC(=O)O[C@@H]1[C@@H](OC(=O)CCCCC)[C@@H](OC)O[C@H](CSCCNC(=S)NCCN(CCN)CCN)[C@H]1OC(=O)CCCCC.Cl
IC50 [µM]: 3.7

CHEMICAL_SMILES: CCCCCC(=O)O[C@@H]1[C@H](OC(=O)CCCCC)[C@@H](O[C@H]2O[C@H](Cn3cc(CNC(=S)NCCN)nn3)[C@@H](OC(=O)CCCCC)[C@H](OC(=O)CCCCC)[C@H]2OC(=O)CCCCC)O[C@H](Cn2cc(CNC(=S)NCCN)nn2)[C@H]1OC(=O)CCCCC
IC50 [µM]: 5

// recorded IC50 for CCCCCC(=O)O[C@@H]1[C@H](OC(=O)CCCCC)[C@@H](O[C@H]2O[C@H](Cn3cc(CN(CCN)CCN)nn3)[C@@H](OC(=O)CCCCC)[C@H](OC(=O)CCCCC)[C@H]2OC(=O)CCCCC)O[C@H](Cn2cc(CN(CCN)CCN)nn2)[C@H]1OC(=O)CCCCC : 0.6

---

Target: Toll-like receptor 4 (Homo sapiens, UniProt O00206)
Assay: Agonist activity at human TLR4 expressed in HEK293 cells co-transfected with human MD-2/CD14 assessed as receptor signal after 2 to 4 hrs by dual luciferase reporter gene assay
Format: cell-based
Calls of active or inactive are those of the source. No cut-off for these calls is given here.
QUANTITY_KIND: Activity

CHEMICAL_SMILES: CCCCCC(=O)O[C@@H]1[C@@H](OC(=O)CCCCC)[C@@H](OC)O[C@H](Cn2cc(CN(CCNC(=S)NCCN)CCNC(=S)NCCN)nn2)[C@H]1OC(=O)CCCCC
STUDY_SYSTEM: Toll-like receptor 4 (Homo sapiens, UniProt O00206)
MEASURED: inactive

CHEMICAL_SMILES: CCCCCC(=O)O[C@@H]1[C@H](OC(=O)CCCCC)[C@@H](O[C@H]2O[C@H](Cn3cc(CNC(=S)NCCN)nn3)[C@@H](OC(=O)CCCCC)[C@H](OC(=O)CCCCC)[C@H]2OC(=O)CCCCC)O[C@H](Cn2cc(CNC(=S)NCCN)nn2)[C@H]1OC(=O)CCCCC
STUDY_SYSTEM: Toll-like receptor 4 (Homo sapiens, UniProt O00206)
MEASURED: inactive

CHEMICAL_SMILES: CCCCCC(=O)O[C@@H]1[C@H](OC(=O)CCCCC)[C@@H](O[C@H]2O[C@H](CSCCN)[C@@H](OC(=O)CCCCC)[C@H](OC(=O)CCCCC)[C@H]2OC(=O)CCCCC)O[C@H](CSCCN)[C@H]1OC(=O)CCCCC
STUDY_SYSTEM: Toll-like receptor 4 (Homo sapiens, UniProt O00206)
MEASURED: inactive
